// kon lookup, one value per entry
- Tgt: T1, Flt-1 antigen (species not stated) (Homo sapiens (Human), UniProt P17948 27-656)
- T1 construct: also called sFlt-1; soluble Flt-1
- Protocol Details: Biacore
The figure you give is taken to be in M⁻¹ s⁻¹; do not add the unit.

Check out these entries, answers already filled in.
>  <Binder>
27H4 (antibody, human IgG1, lambda, V domains shown, also called 27H4 WT; antibody 27H4) VH: ELQLVESGGGLVQPGGSLRLSCAASGFTFRDYSMSWVRQAPGKGLEWVSAISWNGDSTYYAESLKGRFTISRDNAKNTLYLQMNSLRAEDTAVYYCAKSWATPIESLYYYGSDYWGQGTLVTVSS VL: SYELTQPLSVSVALGQTARITCGGNNIGSQTAQWYQQKPGQAPVLVIYANNRRPSGIPERFSGSKSGNTATLTISRAQAEDEADYYCQVWEDSTQAIVFGGGTKLTVLG

>  <Reading>
340000

$$$$
>  <Binder>
27H6 (antibody, human IgG1, lambda, V domains shown, also called 27H6 WT; antibody 27H6) VH: ELQLVESGGGLVQPGGSLRLSCAASGFTFSDYSASWVRQAPGKGLEWVSAISWSGDSTYYAESVKGRFTIFRDNSKNTLYLQMNSLRAEDTAVYYCAKSWATPIESLYYYGSDYWGQGTLVTVSS VL: SYELTQPLSVSVALRQAAKITCGGNNIGSQTAQWYQQKPGQAPVLVIYANNRRPSGIPERFSGSKSGNTATLTISRAQAGDEADYYCQVWDGSTQAIVFGGGTKLTVLG

>  <Reading>
910000

$$$$
>  <Binder>
21B3 (antibody, V domains shown, also called 21B3 WT; antibody 21B3) VH: ELQLVESGGGLVQPGGSLRLSCAASGFTFRDYSMSWVRQAPGKGLEWVSAISWNGDSTYYAESMKGRFTISRDNAKNTLYLQMNSLKSEDTAVYYCAKSWATPIESLYYYGMDYWGKGTLVTVSS VL: SYELTQSPSVSVALRQTAKITCGGNNIGSQTAQWYQQKPGQAPVLVIYANNRRPSGIPERFSGSKSGNTATLTISGAQAEDEADYYCQVWDGSTQAIVFGGGTHLTVL

>  <Reading>
540000

$$$$

// switching to the query binder
response.value for 27H9 (antibody, human IgG1, lambda, V domains shown, also called 27H9 WT; 27H9 WT 23/07) VH: EVQLLESGGGLVQPGGSLRLSCAASGFTFRDYSMSWVRQAPGKGLEWVSAISWNGDSTYYAESAKGRFTISRDNSKNTLYLQMNSLRAEDTAVYYCAKSWATPIESLYYYGSDYWGQGTLVTVSS VL: SYELTQPLSVSVALRQTARITCGGNNIGSQTAQWYQQKPGQAPVLVIYANNRRPSGIPERFSGSKSGNTATLTISRAQAEDEADYYCQVWDESTQAIVFGGGTKLTVLG (field: kon) = 330000
